Target: human glucagon-like peptide-1 (GLP-1) receptor (human, UniProt P43220 24-463)
Assay: cell-based or functional assay
measured.endpoint: cAMP EC50 (nM)
Write the answer as a number in nM, unit excluded.

Report cAMP EC50, nothing else, for this binder: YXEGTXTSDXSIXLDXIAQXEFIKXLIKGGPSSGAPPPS (Aib2, αMeF(2F)6, OMeY10, αMeL13, Orn16, Aib20, K24(Z), αMeY25, K28(Z), C-terminal NH2; Z = AEEA2-(γ-Glu)-(10-(4-carboxyphenoxy)decanoyl)) [Example 279] 0.406

Quickly give me recorded cAMP EC50 for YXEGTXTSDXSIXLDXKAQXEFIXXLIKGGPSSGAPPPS (Aib2, αMeF(2F)6, 2Nal10, αMeL13, Orn16, K17(Z), Aib20, D-Glu24, αMeY25, K28(Z), C-terminal NH2; Z = AEEA2-(γ-Glu)-CO-(CH2)12-CO2H) [Example 250] 0.414

Report measured cAMP EC50; entry is YXEGTXTSDYXIXLDXKAQXEFIXXLIEGGKSSGAPPPS (Aib2, αMeF(2F)6, Dap11, αMeL13, Orn16, K17(Z), Aib20, D-Glu24, αMeY25, K31(Z), C-terminal NH2; Z = AEEA2-(γ-Glu)-CO-(CH2)12-CO2H) [Example 200] 0.834

Please supply the value of reported cAMP EC50 for the item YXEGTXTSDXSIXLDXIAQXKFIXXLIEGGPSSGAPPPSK (Aib2, αMeF(2F)6, 4Pal10, αMeL13, Orn16, Aib20, K21(Z), D-Glu24, αMeY25, K40(Z), C-terminal NH2; Z = AEEA2-CO-(CH2)12-CO2H) [Example 196] 0.356

Give the reported cAMP EC50 for this binder. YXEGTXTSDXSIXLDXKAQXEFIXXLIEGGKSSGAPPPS (Aib2, αMeF(2F)6, 4Pal10, αMeL13, Orn16, K17(Z), 4Pal20, D-Glu24, αMeY25, K31(Z), C-terminal NH2; Z = AEEA2-(γ-Glu)-CO-(CH2)12-CO2H) [Example 156] 4.6

Specify reported cAMP EC50 for the binder shown: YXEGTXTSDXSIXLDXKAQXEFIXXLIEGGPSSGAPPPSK (Aib2, αMeF(2F)6, OMeY10, αMeL13, Orn16, K17(Z), Aib20, D-Glu24, αMeY25, K40(Z), C-terminal NH2; Z = AEEA2-CO-(CH2)12-CO2H) [Example 267] 0.271
